Reported TGI by item:
- Tested on: MOLT-4 leukemia
- protocol_text: NCI tumour cell line growth inhibition, 48 h
Return type: number; implicit unit µM.

CC(=O)OC(C)(C)C1O[C@@]23OC1C[C@@H](C)[C@@H]2[C@@]1(C)CC[C@@]24C[C@@]25CC[C@H](OC2OCC(O)C(O)C2O)C(C)(C)[C@@H]5CCC4[C@]1(C)[C@H]3O (some centres undefined)    21.5
CN1C[C@@H](c2ccc(Cl)cc2)[C@]2(NC(=S)N(c3ccc(F)c(Cl)c3)C2=O)[C@@]12C(=O)NC1C=CC(Cl)=C[C@H]12 (some centres undefined)    14.6
O=C(CCN1CCOCC1)c1ccc(Oc2ccc(F)cc2)cc1    55.2

Determine from records and report TGI for `Cc1ccc(NCCN(C)C)c2c(=O)c3cc(O)ccc3oc12`
11.7
